tested on: TNFα; experiment: TNFα inhibitory ability by cellular inflammatory response (supernatant, antibody-coated plate), Raw264.7 cells; assay type: cell-based; conditions: Mus musculus, 1 μM compound 24 hours, then 100 ng/ml LPS 24 hours, supernatant protein
Decision: inhibition at 1 µM >= 20% yields Fulfilled, all other cases yield Not fulfilled.

Please review the following examples before continuing.
MOLECULE	CAT
O=C(NC1CC1)c1ccc(Cl)c(-c2ccc(C(=O)c3c[nH]c4ccccc34)cc2)c1 [Compound 2]	Fulfilled
Cc1c(F)cc(C(=O)NC2CC2)cc1-c1ccc(C(=O)c2cn(Cc3ccccc3)c3ccccc23)cn1 [Compound 5]	Fulfilled
Cc1c(F)cc(C(=O)NC2CC2)cc1-c1ccc(C(=O)c2c[nH]c3cc(OCC(O)CO)ccc23)cn1 (centres unmarked) [Compound 3]	Not fulfilled

# check: inhibition at 1 µM of Cc1c(F)cc(C(=O)NC2CC2)cc1-c1ccc(C(=O)c2c[nH]c3ccccc23)cn1 [Compound 4] is greater than or equal to 20%
Fulfilled

# check: inhibition at 1 µM of Cc1c(F)cc(C(=O)NC2CC2)cc1-c1ccc(C(=O)c2ccc(OCC(O)CO)cc2)cn1 (centres unmarked) [Compound 1] is greater than or equal to 20%
Fulfilled

* * *

target: p-p38 MAPK (Mus musculus (Mouse)); test: p38 MAPK protein inhibitory ability in cells (p-p38 immunoblot, LPS-treated Raw264.7); type: cell-based; conditions: Raw264.7 cells, 1 μM compound 24 hours, then 100 ng/ml LPS 6 hours
Sequence (P47811 whole entry): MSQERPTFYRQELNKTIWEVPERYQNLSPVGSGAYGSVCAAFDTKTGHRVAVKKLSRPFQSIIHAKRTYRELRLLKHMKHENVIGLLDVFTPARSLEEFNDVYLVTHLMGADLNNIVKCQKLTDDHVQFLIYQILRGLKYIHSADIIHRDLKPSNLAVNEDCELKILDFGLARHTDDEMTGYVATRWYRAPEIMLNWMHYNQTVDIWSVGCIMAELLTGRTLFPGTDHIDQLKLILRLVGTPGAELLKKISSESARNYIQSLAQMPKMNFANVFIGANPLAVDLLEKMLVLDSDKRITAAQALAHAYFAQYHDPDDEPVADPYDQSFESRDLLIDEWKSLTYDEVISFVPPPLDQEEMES
Field: inhibition at 1 µM. Provide a value for each of the compounds that follow.
Numbers only, in %.

Please review the entries below; each comes with its answer.
COMPOUND	inhibition at 1 µM / %
Cc1c(F)cc(C(=O)NC2CC2)cc1-c1ccc(C(=O)c2c[nH]c3ccccc23)cn1	68
Cc1c(F)cc(C(=O)NC2CC2)cc1-c1ccc(C(=O)c2cn(Cc3ccccc3)c3ccccc23)cn1	52.8
O=C(NC1CC1)c1ccc(Cl)c(-c2ccc(C(=O)c3c[nH]c4ccccc34)cc2)c1	69
Cc1c(F)cc(C(=O)NC2CC2)cc1-c1ccc(C(=O)c2ccc(OCC(O)CO)cc2)cn1 (centres unmarked)	11.3

# ---- query compound ----
In plain terms, Cc1c(F)cc(C(=O)NC2CC2)cc1-c1ccc(C(=O)c2c[nH]c3cc(OCC(O)CO)ccc23)cn1 (centres unmarked) has a documented inhibition at 1 µM of 39.7

* * *

Entries with their measured IC50, system p38 alpha (Homo sapiens (Human)):
One number for each entry, in nM.

COMPOUND	UNIT STRING	IC50
Cc1c(F)cc(C(=O)NC2CC2)cc1-c1ccc(C(=O)c2cn(Cc3ccccc3)c3ccccc23)cn1 [Compound 5]	nM	193

Record IC50 for all entries; do not skip any.
1. Cc1c(F)cc(C(=O)NC2CC2)cc1-c1ccc(C(=O)c2c[nH]c3ccccc23)cn1 [Compound 4]
2. Cc1c(F)cc(C(=O)NC2CC2)cc1-c1ccc(C(=O)c2ccc(OCC(O)CO)cc2)cn1 (stereo not drawn) [Compound 1]

1: 18.8; 2: 22.3
